Source: PubChem BioAssay (NCI)

# ASSAY_TEXT: NCI Yeast Anticancer Drug Screen. Data for the bub3 strain (AID 167)
# CONDITION_DESCRIPTION: S. cerevisiae bub3 mutant strain, at 50.0 µM (retest, dose inferred, filed as 5.0), active compounds read high
About 79,000 compounds went through this panel and 15% of them were active in at least one assay; those are over-represented in the sample as a whole.
MEASUREMENT_LABEL: growth inhibition (%)
One number for each entry, in %.

As a guide, the following entries are already answered.
                                   compound  unit_abbrev  readout_number
0     O=C(Nc1cccc(C(F)(F)F)c1)O/N=C(/Cl)CCl            %             100
1                       O=c1cc2cccccc-2cc1O            %              95
2  C/C(=N/NC(N)=S)C(CN1CCOCC1)C(C1=C(O)c2ccccc2OC1)c1ccccc1 (stereo unspecified)            %              24
3  Cc1ccc(S(=O)(=O)N/N=C/c2oc(-c3cccc([N+](=O)[O-])c3)c(-c3cccc([N+](=O)[O-])c3)c2[N+](=O)[O-])cc1            %              31
4  C/C(=C\N1CCN(c2ccc(Cl)cc2)C(C)C1)C(=O)c1ccccc1 (stereo unspecified)            %              92

Can you give me growth inhibition for all of these, one by one?
1. S=C(Nc1cc(Cl)cc(Cl)c1)SCc1ccccc1
2. COC(=O)C1=C(C(=O)OC)C2(C)OC1C(=O)C21CC1 (stereo unspecified)
3. COc1cc(C2c3cc4c(cc3[C@@H](OCCN)[C@H]3COC(=O)C23)OCO4)cc(OC)c1O (stereo partly specified)
4. O=C1OCCCN1/N=C/c1ccc([N+](=O)[O-])o1

Result ::
68
91
44
62

// for each compound in input: emit growth inhibition
1. C=CC(=O)N1C/C(=C\c2ccccc2)C(=O)/C(=C/c2ccccc2)C1
2. NCC1CCNCC1

Result ::
1. 87
2. 1

====

# ASSAY_TEXT: NCI Yeast Anticancer Drug Screen. Data for the mec2-1 strain (AID 157)
# CONDITION_DESCRIPTION: S. cerevisiae mec2-1 strain, at 50.0 µM (retest, dose inferred, filed as 5.0)
The panel holds about 79,000 compounds, 15% with a hit somewhere; the sample as a whole holds those more often. Calls of active or inactive are those of the source. No stated cut-off is given here; in the data, active means growth inhibition above about 70%; inactive means the rest.
Just give me one of these, please: y for active, n for inactive

These solved cases illustrate the format of a correct answer.
In [3]: df
Out[3]:
                                   compound  answer_label
0  CC(C)(Br)C(Br)C(=O)C(Br)C(C)(C)Br (centres undefined)             n
1      O=C(Nc1ccc(F)c(Cl)c1)Oc1ccc(Br)cc1Br             n
2  CCCCCCCCCCCCNC(=O)C[n+]1cccc(C(=O)N(C)C)c1             n
3                  Brc1ccc2[nH]c3ccccc3c2c1             n
4  COc1cc(NCC(C)(O)CN2CCC(C)CC2C)c2ncccc2c1 (centres undefined)             n
5             S=c1[nH]c2c(-c3ccccc3)cccc2s1             n

Query :: Could you please tell me the result logged for Cc1[nH]ccc2c(C)c3nc4ccccc4c3cc12 in this assay?
Result :: y

Query :: State the result this test recorded for Cc1ccc(S(=O)(=O)C(C#N)(CCC(=O)/C=C/c2ccccc2)CCC(=O)/C=C/c2ccccc2)cc1 .
Result :: n

Query :: Called result for C(=P(c1ccccc1)(c1ccccc1)c1ccccc1)[P+](c1ccccc1)(c1ccccc1)c1ccccc1
Result :: y

Query :: Identify the outcome logged in this assay for the compound shown: N#Cc1ccc(C2Oc3ccc(Cl)cc3C=C2[N+](=O)[O-])cc1 (centres undefined)
Result :: y

Query :: Test call for this compound, please: Nc1nc(-c2ccccc2)nc(Cl)c1I
Result :: n

Query :: State the result this test recorded for CC1CCC2(CC1)NC1=C(CC(C)CC1)C1=C2CC(C)CC1 (centres undefined) .
Result :: y

Query :: Any idea what this test logged for CC(C)(C)c1ccc(O)c(CN(Cc2c(O)ccc3ccccc23)C2CCCCC2)c1 ?
Result :: y

Query :: Answer briefly: the call reported for CC(=O)C(C(C)=O)C1C=CC=CC=C1 in this assay.
Result :: y

Query :: Record request — test call for O=C(NC(OCc1ccccc1)(C(F)(F)F)C(F)(F)F)OCc1ccccc1
Result :: y

Query :: Short answer needed: outcome of this test for CC/C(=N\NC(=S)SC)c1ccccn1 ?
Result :: y

Query :: For this compound, state the assay outcome: Cc1cc(Cl)nc2ccc(Cc3ccc4nc(Cl)cc(C)c4c3)cc12
Result :: n

Query :: // outcome(item) with item = O=C(c1ccc(O)c(Br)c1)c1cc(Br)ccc1O
Result :: y

Query :: Called result for CCCCCCCCCN1CCNC1=S
Result :: n

Query :: Which outcome did this test record for the compound CN1C(OCc2ccccc2)c2c(ccc3c2OCO3)C2C=Cc3cc4c(cc3C21)OCO4 (centres undefined) ?
Result :: y

Query :: Each compound tested received a call. Report the one for COc1ccccc1NC(=O)/C(=C/n1c(=S)sc2ccccc21)C(C)=O .
Result :: n

Query :: Outcome? Cc1cc(N)c(C)c2c1[nH]c1ccc(Br)cc12
Result :: y

Query :: Identify the outcome logged in this assay for the compound shown: NC1NCCC(=O)N1CCc1c[nH]c2ccccc12 (centres undefined)
Result :: y

Query :: Field: outcome | Entry: Cc1[nH]c(=O)[nH]c(=S)c1C(=O)NC1C2CCCCC2NC2CCCCC21 (centres undefined)
Result :: y
